# system-tested: integrin α4β1 (Homo sapiens, UniProt P05556+P13612)
# Construct: cell strain Jurkat (ATCC TIB-152) of human T cells, known to express integrin α4β1; endogenous in cells
# Sequence (P13612 34-1032): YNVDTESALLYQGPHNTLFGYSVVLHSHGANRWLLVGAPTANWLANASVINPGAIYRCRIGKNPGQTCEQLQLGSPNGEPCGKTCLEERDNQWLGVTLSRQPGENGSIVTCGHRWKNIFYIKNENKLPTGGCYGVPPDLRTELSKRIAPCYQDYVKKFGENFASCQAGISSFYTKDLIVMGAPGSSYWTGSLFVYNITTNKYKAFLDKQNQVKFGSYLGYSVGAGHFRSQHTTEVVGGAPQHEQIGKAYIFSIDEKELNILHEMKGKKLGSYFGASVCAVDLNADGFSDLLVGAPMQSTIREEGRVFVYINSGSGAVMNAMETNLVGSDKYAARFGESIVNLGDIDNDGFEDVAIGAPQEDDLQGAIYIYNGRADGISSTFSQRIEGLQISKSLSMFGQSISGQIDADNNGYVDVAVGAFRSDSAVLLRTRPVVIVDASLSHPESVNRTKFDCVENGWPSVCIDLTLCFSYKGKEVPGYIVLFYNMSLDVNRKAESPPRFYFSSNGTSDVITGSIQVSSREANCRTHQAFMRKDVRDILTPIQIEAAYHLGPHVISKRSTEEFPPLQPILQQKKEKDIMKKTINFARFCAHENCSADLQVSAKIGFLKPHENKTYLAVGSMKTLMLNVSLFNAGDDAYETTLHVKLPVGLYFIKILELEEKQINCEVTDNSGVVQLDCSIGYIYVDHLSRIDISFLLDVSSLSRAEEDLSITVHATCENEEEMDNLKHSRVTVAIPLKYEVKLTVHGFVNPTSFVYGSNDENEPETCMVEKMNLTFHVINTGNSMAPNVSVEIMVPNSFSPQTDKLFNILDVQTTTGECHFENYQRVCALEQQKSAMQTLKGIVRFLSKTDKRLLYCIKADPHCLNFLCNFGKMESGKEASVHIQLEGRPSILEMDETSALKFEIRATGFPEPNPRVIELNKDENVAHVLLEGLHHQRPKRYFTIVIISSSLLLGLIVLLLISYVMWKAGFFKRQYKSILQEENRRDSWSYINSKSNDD
# Sequence (P05556 21-798): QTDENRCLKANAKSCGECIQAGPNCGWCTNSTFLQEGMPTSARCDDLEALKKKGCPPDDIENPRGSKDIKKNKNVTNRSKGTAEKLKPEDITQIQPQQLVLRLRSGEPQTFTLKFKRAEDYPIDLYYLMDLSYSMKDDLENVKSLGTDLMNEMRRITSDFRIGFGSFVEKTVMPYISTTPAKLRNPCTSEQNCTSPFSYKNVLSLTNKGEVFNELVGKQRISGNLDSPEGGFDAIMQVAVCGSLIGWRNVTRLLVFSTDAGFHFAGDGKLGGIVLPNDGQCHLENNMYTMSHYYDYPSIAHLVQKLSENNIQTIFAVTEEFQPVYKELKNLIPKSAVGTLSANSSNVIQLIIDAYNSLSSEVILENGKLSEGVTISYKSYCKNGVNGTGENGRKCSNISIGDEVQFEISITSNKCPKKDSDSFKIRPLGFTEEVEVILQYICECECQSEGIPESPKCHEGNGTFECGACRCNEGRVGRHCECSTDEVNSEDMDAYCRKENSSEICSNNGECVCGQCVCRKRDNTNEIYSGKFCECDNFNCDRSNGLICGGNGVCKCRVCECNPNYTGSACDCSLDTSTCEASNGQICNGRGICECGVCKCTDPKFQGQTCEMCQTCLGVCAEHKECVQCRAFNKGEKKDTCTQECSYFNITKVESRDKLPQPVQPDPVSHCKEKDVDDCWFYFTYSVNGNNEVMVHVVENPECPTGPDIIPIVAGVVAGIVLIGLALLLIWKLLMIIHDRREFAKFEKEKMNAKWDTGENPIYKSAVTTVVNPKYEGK
# experimental-protocol: VCAM antagonist activity (VCAM-1/α4β1 binding assay), Jurkat cells binding to VCAM-1
# applied-conditions: Jurkat human T cells binding to recombinant human VCAM-1; read-out: VCAM antagonistic activity (IC50) α4β1
outcome-measure: IC50 (nM)

molecule | IC50 [nM]
Cn1c(=O)n(-c2ccc(C[C@H](NC(=O)c3c(Cl)cccc3Cl)C(=O)O)cc2)c(=O)c2cccnc21 | 53

1: CCn1c(=S)n(-c2ccc(C[C@H](NC(=O)c3c(Cl)cccc3Cl)C(=O)O)cc2)c(=O)c2cc([N+](=O)[O-])ccc21
2: COc1cccc2c(=O)n(-c3ccc(C[C@H](NC(=O)c4c(Cl)cccc4Cl)C(=O)O)cc3)c(=O)[nH]c12
3: O=C(N[C@@H](Cc1ccc(-n2c(=O)c3cc([N+](=O)[O-])ccc3n(CC3CCCCC3)c2=O)cc1)C(=O)O)c1c(Cl)cccc1Cl
Q: Put these in order: smallest IC50 first, largest last. // ordering of labels required in reply
Ans: 2, 1, 3
(2: 195 nM, 1: 370 nM, 3: 1450 nM)

----------
# system-tested: integrin α4β7 (Homo sapiens, UniProt P13612+P26010)
# Construct: lymphoma cell strain RPMI-8866 of human B cells, known to express integrin α4β7; endogenous in cells
# Sequence (P13612 34-1032): as the sequence (P13612 34-1032) above
# Sequence (P26010 20-798): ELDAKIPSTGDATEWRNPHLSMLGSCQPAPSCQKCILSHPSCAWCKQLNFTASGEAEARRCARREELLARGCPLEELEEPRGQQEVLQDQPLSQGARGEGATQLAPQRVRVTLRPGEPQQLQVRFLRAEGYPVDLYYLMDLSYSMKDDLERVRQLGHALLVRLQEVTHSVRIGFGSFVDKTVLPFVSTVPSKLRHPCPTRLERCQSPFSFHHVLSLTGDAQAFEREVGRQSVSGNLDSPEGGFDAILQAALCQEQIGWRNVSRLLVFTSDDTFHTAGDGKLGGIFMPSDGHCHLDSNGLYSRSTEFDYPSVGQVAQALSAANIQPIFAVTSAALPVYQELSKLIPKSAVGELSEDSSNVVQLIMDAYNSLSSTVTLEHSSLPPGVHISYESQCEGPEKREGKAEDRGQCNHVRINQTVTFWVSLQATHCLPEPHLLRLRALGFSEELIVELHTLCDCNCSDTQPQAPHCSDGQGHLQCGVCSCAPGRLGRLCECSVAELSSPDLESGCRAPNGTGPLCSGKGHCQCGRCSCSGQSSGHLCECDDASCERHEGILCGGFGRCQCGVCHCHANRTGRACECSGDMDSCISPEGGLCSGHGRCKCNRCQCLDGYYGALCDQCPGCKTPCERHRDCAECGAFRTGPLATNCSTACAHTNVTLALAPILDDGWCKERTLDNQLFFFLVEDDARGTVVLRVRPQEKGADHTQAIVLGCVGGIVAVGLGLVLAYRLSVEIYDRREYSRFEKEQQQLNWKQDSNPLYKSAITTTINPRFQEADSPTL
# experimental-protocol: VCAM antagonistic activity (VCAM-1/α4β7 binding assay), RPMI-8866 cells binding to VCAM-1
# applied-conditions: RPMI-8866 human B lymphoma cells binding to recombinant human VCAM-1; binding buffer with 4 mM MnCl2
outcome-measure: IC50 (nM)

# example entries with known answers
molecule | system-tested | IC50 / nM
COc1ccc2[nH]c(=O)n(-c3ccc(C[C@H](NC(=O)c4c(Cl)cccc4Cl)C(=O)O)cc3)c(=O)c2c1 | integrin α4β7 (Homo sapiens, UniProt P13612+P26010) | 28
O=C(N[C@@H](Cc1ccc(-n2c(-c3ccccc3)nc3ccccc3c2=O)cc1)C(=O)O)c1c(Cl)cccc1Cl | integrin α4β7 (Homo sapiens, UniProt P13612+P26010) | 68
O=C(N[C@@H](Cc1ccc(-n2nnc3ccccc3c2=O)cc1)C(=O)O)c1c(Cl)cccc1Cl | integrin α4β7 (Homo sapiens, UniProt P13612+P26010) | 43.7
O=C(N[C@@H](Cc1ccc(-n2c(=O)[nH]c3c(Cl)cccc3c2=O)cc1)C(=O)O)c1c(Cl)cccc1Cl | integrin α4β7 (Homo sapiens, UniProt P13612+P26010) | 10.2
O=C(N[C@@H](Cc1ccc(-n2c(=O)[nH]c3cccc(Cl)c3c2=O)cc1)C(=O)O)c1c(Cl)cccc1Cl | integrin α4β7 (Homo sapiens, UniProt P13612+P26010) | 9.8
CN1CCC(=O)N(c2ccc(C[C@H](NC(=O)c3c(Cl)cccc3Cl)C(=O)O)cc2)C1=O | integrin α4β7 (Homo sapiens, UniProt P13612+P26010) | 12
O=C(N[C@@H](Cc1ccc(-n2c(=O)[nH]c3cc(C(F)(F)F)ccc3c2=O)cc1)C(=O)O)c1c(Cl)cccc1Cl | integrin α4β7 (Homo sapiens, UniProt P13612+P26010) | 62.1
O=C(N[C@@H](Cc1ccc(-n2c(=O)c3cc([N+](=O)[O-])ccc3n(CC3CCCCC3)c2=O)cc1)C(=O)O)c1c(Cl)cccc1Cl | integrin α4β7 (Homo sapiens, UniProt P13612+P26010) | 45
Cn1c(=O)n(-c2ccc(C[C@H](NC(=O)c3c(Cl)cccc3Cl)C(=O)O)cc2)c(=O)c2c(Cl)cccc21 | integrin α4β7 (Homo sapiens, UniProt P13612+P26010) | 3.2
COc1ccc2c(=O)n(-c3ccc(C[C@H](NC(=O)c4c(Cl)cccc4Cl)C(=O)O)cc3)c(=O)oc2c1 | integrin α4β7 (Homo sapiens, UniProt P13612+P26010) | 17

I: COc1nc2ccccc2c(=O)n1-c1ccc(C[C@H](NC(=O)c2c(Cl)cccc2Cl)C(=O)O)cc1
II: O=C(N[C@@H](Cc1ccc(-n2c(=O)[nH]c3nccnc3c2=O)cc1)C(=O)O)c1c(Cl)cccc1Cl
Q: Sort I and II by IC50 descending and give the first. # respond with the chosen item's label
Ans: II

A: O=C(N[C@@H](Cc1ccc(-n2nnc3c(Cl)ccc(Cl)c3c2=O)cc1)C(=O)O)c1c(Cl)cccc1Cl
B: Cc1nc2ccccc2c(=O)n1-c1ccc(C[C@H](NC(=O)c2c(Cl)cccc2Cl)C(=O)O)cc1
Q: Could you tell me which of these two has the smaller IC50 figure? First: A Second: B Could you answer with the label of the item you picked?
Ans: A
